test system: BMDC; test: Vaccine adjuvant activity in Balb/c mouse BMDC assessed as increase in IL-12 production at 10 uM incubated for 20 hrs by ELISA (reference value: 1.35 +/-0.1 ng/ml); type: functional
Catalogue of compounds with associated Activity

molecularString | Activity (ng/mL)
CCOC(=O)c1c(NS(=O)(=O)c2cccc3ncccc23)sc(C)c1C | 1.1
CCOC(=O)c1c(NS(=O)(=O)c2cccc3nsnc23)sc(Br)c1C | 1.03
CCCCCCOC(=O)c1c(NS(=O)(=O)c2cccc3nsnc23)sc(C)c1C | 3.44
CCOC(=O)c1ccsc1NS(=O)(=O)c1cccc2nsnc12 | 0.48
CCOC(=O)c1c(NS(=O)(=O)c2ccccc2)sc(C)c1C | 1.16
Cc1sc(NS(=O)(=O)c2cccc3nsnc23)c(C(=O)OCc2ccccc2)c1C | 2.74
Cc1sc(NS(=O)(=O)c2cccc3nsnc23)c(-c2nc(C#N)no2)c1C | 1.59
CCOC(=O)c1c(NS(=O)(=O)c2cccc3ccncc23)sc(C)c1C | 1.12
CCOC(=O)c1c(NS(=O)(=O)c2cccc3nsnc23)sc(-c2ccco2)c1C | 2.56
Cc1sc(NS(=O)(=O)c2cccc3nsnc23)c(C(=O)OCCCCCN)c1C | 1.43
CCOC(=O)c1c(NS(=O)(=O)c2cccc3nsnc23)sc2ccccc12 | 1.11
Cc1sc(NS(=O)(=O)c2cccc3nsnc23)c(C(=O)OC(C)(C)C)c1C | 3.17
Cc1sc(NS(=O)(=O)c2cccc3nsnc23)c(C(=O)OC(C)C)c1C | 3
CCOC(=O)c1c(NS(=O)(=O)c2cccc3nsnc23)sc(C)c1C | 1.78
CCOC(=O)c1c(NS(=O)(=O)c2cccc3nn[nH]c23)sc(C)c1C | 2.11
Cc1sc(NS(=O)(=O)c2cccc3nsnc23)c(C(=O)OC2CCCCC2)c1C | 3.08
CCOC(=O)c1c(NS(=O)(=O)c2cccc3nsnc23)sc2c1CCNC2 | 0.72
CCOC(=O)c1c(NS(=O)(=O)c2cccc3nsnc23)sc(-c2cccnc2)c1C | 1.05
Cc1cc(NS(=O)(=O)c2cccc3nsnc23)sc1C | 1.4
CCOC(=O)c1c(NS(=O)(=O)c2cccc3nonc23)sc(C)c1C | 1.47
CCOC(=O)c1c(NS(=O)(=O)c2ccc(Br)c3nsnc23)sc(C)c1C | 1.9
CCOC(=O)c1ncsc1NS(=O)(=O)c1cccc2nsnc12 | 1.04
CCOC(=O)c1c(NS(=O)(=O)c2cccc3ccccc23)sc(C)c1C | 1.37

###

system: BMDC; assay: Vaccine adjuvant activity in Balb/c mouse BMDC assessed as increase in IL-12 production at 10 uM incubated for 20 hrs by ELISA (reference value: 1.35 +/-0.1 ng/ml); format: functional
Each entry falls in a class defined on Activity; the bands are group 1 = under 1 ng/mL, group 2 = from 1 ng/mL up to 2 ng/mL, group 3 = 2 ng/mL and over

molecularString | classLabel
CCOC(=O)c1c(NS(=O)(=O)c2cccc3nsnc23)sc2c1CCCC2 | group 2
Cc1sc(NS(=O)(=O)c2cccc3nsnc23)c(C(=O)Oc2ccccc2)c1C | group 2
CCNC(=O)c1c(NS(=O)(=O)c2cccc3nsnc23)sc(C)c1C | group 2
CCOC(=O)c1c(NS(=O)(=O)c2cccc3c2NCCN3)sc(C)c1C | group 2
Cc1sc(NS(=O)(=O)c2cccc3nsnc23)c(C(=O)OCCCCCNC(=O)OC(C)(C)C)c1C | group 3
CCOC(=O)c1nc(C)sc1NS(=O)(=O)c1cccc2nsnc12 | group 1
CCOC(=O)c1c(NS(=O)(=O)c2cccc3nsnc23)sc2c1CCN(CC)C2 | group 2
CCOC(=O)c1c(NS(=O)(=O)c2cccc3nsnc23)sc(-c2cccs2)c1C | group 2
CCOC(=O)c1cc(C)sc1NS(=O)(=O)c1cccc2nsnc12 | group 1
CCOC(=O)c1c(NS(=O)(=O)c2cccc3n[se]nc23)sc(C)c1C | group 3
CCOC(=O)c1c(NS(=O)(=O)c2cccc3nc(O)[nH]c23)sc(C)c1C | group 1
CCCOC(=O)c1c(NS(=O)(=O)c2cccc3nsnc23)sc(C)c1C | group 3
CCOC(=O)c1c(NS(=O)(=O)c2cccc3nccnc23)sc(C)c1C | group 3
CCOC(=O)c1c(NC(=O)c2cccc3nsnc23)sc(C)c1C | group 2
CCOC(=O)c1c(NS(=O)(=O)c2ccc(Br)c3ccncc23)sc(C)c1C | group 2
CCc1noc(-c2c(NS(=O)(=O)c3cccc4nsnc34)sc(C)c2C)n1 | group 2
CCOC(=O)c1c(NS(=O)(=O)c2cccc3nsnc23)sc(-c2ccoc2)c1C | group 2
CCOC(=O)c1c(NS(=O)(=O)c2cccc3nc(C)[nH]c23)sc(C)c1C | group 2
CCOC(=O)c1c(NS(=O)(=O)c2cccc3nsnc23)sc2c1CCN(C(=O)OC(C)(C)C)C2 | group 3
CCOC(=O)c1sc(C)c(C)c1NS(=O)(=O)c1cccc2nsnc12 | group 2

###

experiment: Cytotoxicity against Balb/c mouse BMDC assessed as cell viability at 10 uM incubated for 20 hrs by MTT assay (reference value: 100 +/-0.6%); format: toxicity, cell-based; details: BMDC (bone marrow-derived dendritic cells), read-out: Activity

molecularString | viability at 20 h, 10 µM (%)
CCOC(=O)c1c(NS(=O)(=O)c2cccc3n[se]nc23)sc(C)c1C | 109
CCOC(=O)c1c(NS(=O)(=O)c2ccc3nsnc3c2)sc(C)c1C | 93.1
CCOC(=O)c1c(NS(=O)(=O)c2cccc3ncccc23)sc(C)c1C | 117
CCOC(=O)c1c(NS(=O)(=O)c2cccc3nsnc23)sc2c1CCNC2 | 94.8
CCOC(=O)c1ncsc1NS(=O)(=O)c1cccc2nsnc12 | 91.3
Cc1sc(NS(=O)(=O)c2cccc3nsnc23)c(C(=O)O)c1C | 105
CCCOC(=O)c1c(NS(=O)(=O)c2cccc3nsnc23)sc(C)c1C | 140
CCOC(=O)c1c(NS(=O)(=O)c2cccc3nsnc23)sc2c1CCC2 | 127
CCOC(=O)c1c(NS(=O)(=O)c2cccc3c2NCCN3)sc(C)c1C | 89.3
CCOC(=O)c1c(NS(=O)(=O)c2cccc3ccccc23)sc(C)c1C | 111
Cc1sc(NS(=O)(=O)c2cccc3nsnc23)c(C(=O)Oc2ccccc2)c1C | 107
CCOC(=O)c1c(C)cccc1NS(=O)(=O)c1cccc2nsnc12 | 88.8
CCOC(=O)c1c(NS(=O)(=O)c2cccc3nsnc23)sc(-c2ccccc2)c1C | 136
CCOC(=O)c1c(NS(=O)(=O)c2cccc3nn[nH]c23)sc(C)c1C | 102
CCOC(=O)c1ccsc1NS(=O)(=O)c1cccc2nsnc12 | 72.5
CCOC(=O)c1c(NS(=O)(=O)c2cccc3nsnc23)sc(-c2ccco2)c1C | 98.7
Cc1sc(NS(=O)(=O)c2cccc3nsnc23)c(C(=O)OC2CCCCC2)c1C | 102
CCOC(=O)c1c(NS(=O)(=O)c2cccc3nsnc23)sc(-c2ccoc2)c1C | 82.8
CCOC(=O)c1cc(C)ccc1NS(=O)(=O)c1cccc2nsnc12 | 60.1
CCOC(=O)c1c(NC(=O)c2cccc3nsnc23)sc(C)c1C | 59.1
CCNC(=O)c1c(NS(=O)(=O)c2cccc3nsnc23)sc(C)c1C | 100
Cc1sc(NS(=O)(=O)c2cccc3nsnc23)c(C(=O)OCc2ccccc2)c1C | 128
Cc1cc(NS(=O)(=O)c2cccc3nsnc23)sc1C | 113
CCOC(=O)c1c(NS(=O)(=O)c2cccc3nc(C)[nH]c23)sc(C)c1C | 108
Cc1sc(NS(=O)(=O)c2cccc3nsnc23)c(C(=O)OC(C)(C)C)c1C | 118
CCOC(=O)c1c(C)csc1NS(=O)(=O)c1cccc2nsnc12 | 100
CCOC(=O)c1c(N(C)S(=O)(=O)c2cccc3nsnc23)sc(C)c1C | 108
CCOC(=O)c1c(NS(=O)(=O)c2cccc3cccnc23)sc(C)c1C | 110
CCOC(=O)c1c(NS(=O)(=O)c2ccc(Br)c3ccncc23)sc(C)c1C | 82.7
CCOC(=O)c1nc(C)sc1NS(=O)(=O)c1cccc2nsnc12 | 93.3
CCOC(=O)c1c(NS(=O)(=O)c2cccc3nsnc23)sc2c1CCN(CC)C2 | 108
CCOC(=O)c1c(NS(=O)(=O)c2cccc3nccnc23)sc(C)c1C | 181
CCOC(=O)c1c(NS(=O)(=O)c2cccc3nc[nH]c23)sc(C)c1C | 111
Cc1sc(NS(=O)(=O)c2cccc3nsnc23)c(C(=O)OC(C)C)c1C | 132
CCc1noc(-c2c(NS(=O)(=O)c3cccc4nsnc34)sc(C)c2C)n1 | 65.9
Cc1sc(NS(=O)(=O)c2cccc3nsnc23)c(C(=O)OCCCCCNC(=O)OC(C)(C)C)c1C | 183
Cc1sc(NS(=O)(=O)c2cccc3nsnc23)c(-c2nc(C#N)no2)c1C | 97.6
CCOC(=O)c1c(NS(=O)(=O)c2cccc3nsnc23)sc2c1CCCC2 | 114
CCOC(=O)c1c(NS(=O)(=O)c2cccc(N)c2N)sc(C)c1C | 107
CCOC(=O)c1c(NS(=O)(=O)c2cccc3nsnc23)sc(-c2cccnc2)c1C | 85.5

Where do the numbers come from? From ChEMBL document CHEMBL5614396.
